- Tested on: estrogen synthesis
- assay-details: Estrogen synthesis inhibition in rats (uterine weight and ovarian steroid concentrations)
- Type: in vivo, female Wistar rats
- condition: 30 ppm in feed (approximately 3 mg/kg/day), ovaries
Entries and their measured Mean Steroid Concentration, estriol follow.
readout-name: Mean Steroid Concentration, estriol

* Cl.Clc1cccc(Cn2ccnc2)c1Cl | 0.78 femtomoles per milligram of protein
* Clc1ccc(C(c2ccc(Cl)cc2)n2cnnc2)cc1 | 0.60 femtomoles per milligram of protein
* Clc1ccc(C(c2ccccc2)n2ccnc2)cc1 (stereo not drawn) | 0.75 femtomoles per milligram of protein
* Clc1ccc(C(c2ccc(Cl)cc2)(c2cccnc2)n2ccnc2)cc1 | 0.27 femtomoles per milligram of protein
* O=[N+]([O-])c1ccc(C(c2ccc([N+](=O)[O-])cc2)n2ccnc2)cc1 [1-[bis(4-nitrophenyl)methyl]imidazole] | 1.65 femtomoles per milligram of protein
* c1ccc(C(c2ccccc2)(c2ccncc2)n2ccnc2)cc1 | 0.35 femtomoles per milligram of protein
